Data origin, for the record: paper PMC7815092

# targetUnderTest: HLA-DR1 (DRB1*01:01) (Homo sapiens, UniProt P01903+P01911, A100R/D57E/F55L/F60I/F76Y/I96L/L162R/M171V/P40L/Q125E/R42F/V115G/Y59C)
# Construct: a new stop codon was inserted immediately prior to the transmembrane domain; made in house; host or cells: Drosophila S2 cells, vector pRmHA-3, secreted, purified on an L227 antibody column
# assay: Competitive peptide binding assay to soluble HLA-DR1
# measurementParameters: competition with 0.5 nM biotinylated CII(257–274), 10 nM soluble DR1, 18 h at 37° C, time resolved fluorescence; duplicate, representative of 3 experiments
Where no end group is shown, it is not given here.
valueType: IC50 (nM)

residues	unitSpec	measuredNumber
LQYMRADQAAGGLR [CII]	nM	82.9

(1) VVLLVATEGRVRVNSAYQDK [Agg]
(2) SAVRLRSSVPGVR [Vim]
# min-compare on IC50 between 1 and 2 Respond with the label that goes with your answer.
2

###

# targetUnderTest: HLA-DR4 (DRB1*04:01) (Homo sapiens, UniProt P01903+P01911, A100K/A169T/F76Y/I96L/K127E/L162R/M171V/N62H/P40V/Q125Y/R42H/S133A/S149N/S66Y/V115G/V209L/W38E)
# Construct: a new stop codon was inserted immediately prior to the transmembrane domain; made in house; host or cells: Drosophila S2 cells, vector pRmHA-3, secreted, purified on an L227 antibody column
# assay: Competitive peptide binding assay to soluble HLA-DR4
# measurementParameters: competition with 0.5 nM biotinylated CII(257–274), 10 nM soluble DR4, 18 h at 37° C
Where no end group is shown, it is not given here.
valueType: pIC50
// scale note: pIC50 = -log10(conc_M); give the bare number

Using the record for LQYMRADQAAGGLR [CII] , report its pIC50.
7.43
